Target: TTC37 (UniProt Q6PGP7)
Sequence (Q6PGP7 whole entry): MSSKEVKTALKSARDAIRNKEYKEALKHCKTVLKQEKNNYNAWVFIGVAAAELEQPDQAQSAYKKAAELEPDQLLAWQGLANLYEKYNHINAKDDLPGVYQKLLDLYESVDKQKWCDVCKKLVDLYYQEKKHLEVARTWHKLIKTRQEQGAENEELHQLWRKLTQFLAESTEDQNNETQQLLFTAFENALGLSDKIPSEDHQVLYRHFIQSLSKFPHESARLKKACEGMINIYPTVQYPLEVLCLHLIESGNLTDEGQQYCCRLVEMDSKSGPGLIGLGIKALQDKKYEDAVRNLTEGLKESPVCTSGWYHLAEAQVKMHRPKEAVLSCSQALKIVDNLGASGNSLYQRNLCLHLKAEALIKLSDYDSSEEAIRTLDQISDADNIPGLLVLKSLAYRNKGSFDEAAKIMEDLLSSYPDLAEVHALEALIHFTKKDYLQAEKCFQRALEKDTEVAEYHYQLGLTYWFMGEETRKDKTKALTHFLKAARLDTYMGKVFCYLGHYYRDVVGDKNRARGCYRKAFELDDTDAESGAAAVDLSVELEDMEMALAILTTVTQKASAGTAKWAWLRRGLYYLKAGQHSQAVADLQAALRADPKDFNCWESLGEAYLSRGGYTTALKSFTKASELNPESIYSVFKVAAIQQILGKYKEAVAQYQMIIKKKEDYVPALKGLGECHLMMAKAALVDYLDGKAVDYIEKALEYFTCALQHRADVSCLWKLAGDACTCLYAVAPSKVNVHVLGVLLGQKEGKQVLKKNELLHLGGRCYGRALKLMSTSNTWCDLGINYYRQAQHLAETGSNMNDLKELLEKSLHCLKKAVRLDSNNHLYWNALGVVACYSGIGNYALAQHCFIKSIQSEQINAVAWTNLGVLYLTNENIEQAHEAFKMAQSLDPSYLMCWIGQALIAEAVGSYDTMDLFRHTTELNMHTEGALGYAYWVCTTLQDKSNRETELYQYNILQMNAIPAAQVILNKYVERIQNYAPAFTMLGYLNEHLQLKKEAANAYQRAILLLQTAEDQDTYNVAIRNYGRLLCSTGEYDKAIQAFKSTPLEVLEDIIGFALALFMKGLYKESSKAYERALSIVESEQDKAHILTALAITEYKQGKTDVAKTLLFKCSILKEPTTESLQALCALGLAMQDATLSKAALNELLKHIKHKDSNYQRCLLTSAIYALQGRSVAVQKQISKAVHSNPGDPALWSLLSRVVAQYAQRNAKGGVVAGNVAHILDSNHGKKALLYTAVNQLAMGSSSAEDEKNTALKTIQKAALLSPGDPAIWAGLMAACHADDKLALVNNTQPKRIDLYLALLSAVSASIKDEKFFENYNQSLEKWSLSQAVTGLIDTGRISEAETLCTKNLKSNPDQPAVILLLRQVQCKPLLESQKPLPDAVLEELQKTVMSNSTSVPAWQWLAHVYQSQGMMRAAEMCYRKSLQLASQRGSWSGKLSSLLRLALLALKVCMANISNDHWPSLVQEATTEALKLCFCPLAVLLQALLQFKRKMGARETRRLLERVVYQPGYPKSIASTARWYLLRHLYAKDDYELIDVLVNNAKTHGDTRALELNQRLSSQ
Assay: EC50 of free RNA motif oligo competing protein binding to immobilised probe
readout-type: EC50 (nM)

input-sequence: UAUUUAU
readout-type: EC50
observed: 947

* * *

Recorded measurements of pEC50, one per entry
Target: TFIP11 (UniProt Q9UBB9)
Sequence: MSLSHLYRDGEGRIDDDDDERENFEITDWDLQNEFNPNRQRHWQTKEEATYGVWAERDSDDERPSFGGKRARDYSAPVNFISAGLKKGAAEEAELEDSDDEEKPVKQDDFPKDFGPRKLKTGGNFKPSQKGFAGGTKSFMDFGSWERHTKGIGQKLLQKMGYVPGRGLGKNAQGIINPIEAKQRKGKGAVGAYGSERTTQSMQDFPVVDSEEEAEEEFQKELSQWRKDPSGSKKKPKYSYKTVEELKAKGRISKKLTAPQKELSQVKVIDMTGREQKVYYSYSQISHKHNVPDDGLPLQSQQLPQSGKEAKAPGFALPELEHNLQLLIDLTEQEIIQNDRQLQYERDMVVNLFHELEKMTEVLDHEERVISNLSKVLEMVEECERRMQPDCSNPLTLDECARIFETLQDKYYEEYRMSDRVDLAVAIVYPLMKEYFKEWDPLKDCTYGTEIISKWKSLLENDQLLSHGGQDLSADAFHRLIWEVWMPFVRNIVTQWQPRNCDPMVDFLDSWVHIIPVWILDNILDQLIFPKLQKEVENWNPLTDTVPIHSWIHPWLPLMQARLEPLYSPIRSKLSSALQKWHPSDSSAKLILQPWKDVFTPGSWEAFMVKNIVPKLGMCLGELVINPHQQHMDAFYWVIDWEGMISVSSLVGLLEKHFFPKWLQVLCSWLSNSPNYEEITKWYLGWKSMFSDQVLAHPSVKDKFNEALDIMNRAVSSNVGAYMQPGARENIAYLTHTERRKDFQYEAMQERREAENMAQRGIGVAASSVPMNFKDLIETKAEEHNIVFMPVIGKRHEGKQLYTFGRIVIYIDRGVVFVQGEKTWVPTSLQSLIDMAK
Experiment: EC50 of free RNA motif oligo competing protein binding to immobilised probe
pEC50: −log10 of the molar value.

input-sequence: AAUAAA
pEC50: 5.63
--
input-sequence: UAUUUAU
pEC50: 5.62

* * *

Target: SRSF3 (UniProt P84103)
Sequence: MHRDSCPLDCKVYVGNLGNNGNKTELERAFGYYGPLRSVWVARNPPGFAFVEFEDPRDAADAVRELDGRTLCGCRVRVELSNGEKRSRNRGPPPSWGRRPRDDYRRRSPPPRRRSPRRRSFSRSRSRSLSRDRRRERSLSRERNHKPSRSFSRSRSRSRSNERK
Assay: EC50 of free RNA motif oligo competing protein binding to immobilised probe
pEC50: −log10 of the molar value.
readout-type: pEC50

input-sequence: AAUAAA
readout-type: pEC50
observed: 5.52
//
input-sequence: CUGUCCU
readout-type: pEC50
observed: 5.58

* * *

Target: ELAVL2 (UniProt Q12926)
Sequence (Q12926 whole entry): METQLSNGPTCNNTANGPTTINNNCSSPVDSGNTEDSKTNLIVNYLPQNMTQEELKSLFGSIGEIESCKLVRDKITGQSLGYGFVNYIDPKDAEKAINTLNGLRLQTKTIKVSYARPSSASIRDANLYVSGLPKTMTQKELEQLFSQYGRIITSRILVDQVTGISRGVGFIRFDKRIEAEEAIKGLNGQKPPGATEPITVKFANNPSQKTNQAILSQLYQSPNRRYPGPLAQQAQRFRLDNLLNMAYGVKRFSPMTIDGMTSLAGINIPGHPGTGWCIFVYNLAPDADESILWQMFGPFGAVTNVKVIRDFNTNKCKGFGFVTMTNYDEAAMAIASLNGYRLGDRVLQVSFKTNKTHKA
Experiment: EC50 of free RNA motif oligo competing protein binding to immobilised probe
pEC50: −log10 of the molar value.

input-sequence: AAUAAA
pEC50: 5.01
--
input-sequence: UAUUUAU
pEC50: 5.42

* * *

Molecular target: RPS5 (UniProt P46782)
Assay: EC50 of free RNA motif oligo competing protein binding to immobilised probe

input-sequence: CUGUCCU
unit-label: nM
EC50: 303
